# System: HeLa
# protocol_notes: Cytotoxicity against human HeLa cells
# Type: functional, cell-based
# assay_context: Homo sapiens, HeLa; read-out: pIC50 (converted)
quantity_kind: IC50 (µM)
Field: numeric (µM). Do not append units.

Known IC50 results, listed for orientation:
>  <smiles_str>
CC(=O)O[C@H]1C[C@H]2[C@@H](CC[C@@H]3C[C@]4(CC[C@@]32C)OO[C@@]2(CC[C@@]3(C)[C@H](CC[C@@H]5[C@@H]3C[C@H](OC(C)=O)[C@]3(C)[C@@H]([C@H](C)CCC(=O)N6CCCCC6)CC[C@@H]53)C2)OO4)[C@@H]2CC[C@H]([C@H](C)CCC(=O)N3CCCCC3)[C@@]12C

>  <target_of_assay>
HeLa

>  <obs_value>
89.1

$$$$
>  <smiles_str>
NC(=O)C1CCC2(CC1)OOC1(CCCCC1)OO2

>  <target_of_assay>
HeLa

>  <obs_value>
115

$$$$
>  <smiles_str>
CC(=O)O[C@H]1C[C@H]2[C@@H](CC[C@@H]3C[C@]4(CC[C@@]32C)OO[C@]2(CC[C@@]3(C)[C@H](CC[C@@H]5[C@@H]3C[C@H](OC(C)=O)[C@]3(C)[C@@H]([C@H](C)CCC(=O)O)CC[C@@H]53)C2)OO4)[C@@H]2CC[C@H]([C@H](C)CCC(=O)O)[C@@]12C

>  <target_of_assay>
HeLa

>  <obs_value>
9.12

$$$$

Please report the measured IC50 for CCCNC(=O)CC[C@@H](C)[C@H]1CC[C@H]2[C@@H]3CC[C@@H]4CC5(CC[C@]4(C)[C@H]3C[C@H](OC(C)=O)[C@]12C)OOC1(CCCCC1)OO5 tested on HeLa. 6.46

* * *

# Tested on: HeLa
# protocol_notes: Cytotoxicity against human HeLa cells
# Format: functional, cell-based
# assay_context: Homo sapiens, HeLa; read-out: pIC50 (converted)
quantity_kind: IC50 (µM)
All answers are understood in µM, so give the number only.

>  <compound>
CCC1CCC2(CC1)OOC1(CC[C@@]3(C)[C@H](CC[C@@H]4[C@@H]3C[C@H](OC(C)=O)[C@]3(C)[C@@H]([C@H](C)CCC(=O)NC)CC[C@@H]43)C1)OO2 (some centres undefined)

>  <obs_value>
4.9

$$$$
>  <compound>
CC(=O)O[C@H]1C[C@H]2[C@@H](CC[C@@H]3CC4(CC[C@@]32C)OOC2(CCCCC2)OO4)[C@@H]2CC[C@H]([C@H](C)CCC(N)=O)[C@@]12C

>  <obs_value>
5.25

$$$$
>  <compound>
CCCNC(=O)CC[C@@H](C)[C@H]1CC[C@H]2[C@@H]3CC[C@@H]4C[C@]5(CC[C@]4(C)[C@H]3C[C@H](OC(C)=O)[C@]12C)OO[C@]1(CC[C@@]2(C)[C@H](CC[C@@H]3[C@@H]2C[C@H](OC(C)=O)[C@]2(C)[C@@H]([C@H](C)CCC(=O)NCCC)CC[C@@H]32)C1)OO5

>  <obs_value>
8.32

$$$$

Report IC50 for CCC1CCC2(CC1)OOC1(CC[C@@]3(C)[C@H](CC[C@@H]4[C@@H]3C[C@H](OC(C)=O)[C@]3(C)[C@@H]([C@H](C)CCC(N)=O)CC[C@@H]43)C1)OO2 (some centres undefined) 5.25
